I'd appreciate it if you could supply Emax values for the items below.
biological target: human alpha-2A adrenergic receptors (Homo sapiens, UniProt P08913); construct: expressed in transfected cells; host or cells: membrane preparations; test: Measurement of alpha-2 adrenergic receptor activation (GTPγS response on membrane preparations); type: biochemical; settings: expressed with reference to (−)-adrenaline (maximum stimulation = +100), read-out: Intrinsic activity % stimulated
Sequence (P08913 whole entry): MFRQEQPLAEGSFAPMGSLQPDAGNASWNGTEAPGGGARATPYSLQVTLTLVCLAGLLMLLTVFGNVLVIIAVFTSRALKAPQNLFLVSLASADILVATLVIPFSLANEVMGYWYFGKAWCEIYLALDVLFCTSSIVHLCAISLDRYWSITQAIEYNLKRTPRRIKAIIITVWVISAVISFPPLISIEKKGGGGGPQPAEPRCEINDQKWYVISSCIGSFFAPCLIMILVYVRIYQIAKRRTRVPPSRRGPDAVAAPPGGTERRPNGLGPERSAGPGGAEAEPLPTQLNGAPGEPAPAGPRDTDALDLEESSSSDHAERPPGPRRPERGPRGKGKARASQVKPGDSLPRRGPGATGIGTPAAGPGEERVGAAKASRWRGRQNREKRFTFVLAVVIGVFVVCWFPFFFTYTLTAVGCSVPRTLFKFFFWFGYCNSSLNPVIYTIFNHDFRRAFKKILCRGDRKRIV
Answers are plain numbers, in %.

compound="Fc1ccc2c(c1)C1(CC1)C1(c3c[nH]cn3)CC21 (stereo not shown) [Compound 1-5]" target_system="human alpha-2A adrenergic receptors (Homo sapiens, UniProt P08913)" unit_abbrev=% test_value=-10
compound="c1ccc2c(c1)C1CC1(c1cnc[nH]1)C21CC1 (single isomer, unassigned; (-)) [(-)-1-1]" target_system="human alpha-2A adrenergic receptors (Homo sapiens, UniProt P08913)" unit_abbrev=% test_value=37
compound="C[C@@H]1[C@H]2c3ccccc3C3(CC3)[C@@]12c1c[nH]cn1 (relative stereo) [Compound 1-2]" target_system="human alpha-2A adrenergic receptors (Homo sapiens, UniProt P08913)" unit_abbrev=% test_value=7

// next item, Emax requested
Please report the measured Emax for c1ccc2c(c1)C1CC1(c1cnc[nH]1)C21CC1 (stereo not shown) [Compound 1-1]
14

Cited source for all entries: patent US8188126B2
